measured_target: OCT3 (Homo sapiens)
Sequence (O75751 1-556): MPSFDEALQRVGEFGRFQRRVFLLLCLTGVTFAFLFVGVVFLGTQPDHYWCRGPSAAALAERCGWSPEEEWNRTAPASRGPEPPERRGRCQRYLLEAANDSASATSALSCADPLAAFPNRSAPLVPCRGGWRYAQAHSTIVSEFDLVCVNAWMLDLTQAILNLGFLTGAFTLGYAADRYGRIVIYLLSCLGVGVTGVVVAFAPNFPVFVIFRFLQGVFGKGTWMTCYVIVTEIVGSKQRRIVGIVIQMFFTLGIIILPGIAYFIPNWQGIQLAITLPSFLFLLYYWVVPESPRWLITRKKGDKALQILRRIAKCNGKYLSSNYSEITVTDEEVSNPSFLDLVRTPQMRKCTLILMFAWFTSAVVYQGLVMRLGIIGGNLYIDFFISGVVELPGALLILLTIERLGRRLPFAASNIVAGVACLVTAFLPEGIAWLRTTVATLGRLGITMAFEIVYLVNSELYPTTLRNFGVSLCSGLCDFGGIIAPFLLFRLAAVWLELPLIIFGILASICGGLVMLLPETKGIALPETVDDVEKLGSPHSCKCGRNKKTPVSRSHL
assay_details: OCT3 transport inhibition by TKIs (Supplementary Figure S2)
Format: cell-based
test_readout: OCT3 function in presence of TKI

Look over these answered cases.
compound: CCN(CC)CCNC(=O)c1c(C)[nH]c(/C=C2\C(=O)Nc3ccc(F)cc32)c1C [sunitinib]
measured_target: OCT3 (Homo sapiens)
test_readout: OCT3 function in presence of TKI
value: potently inhibiting

compound: COc1cc(Nc2c(C#N)cnc3cc(OCCCN4CCN(C)CC4)c(OC)cc23)c(Cl)cc1Cl [bosutinib]
measured_target: OCT3 (Homo sapiens)
test_readout: OCT3 function in presence of TKI
value: no influence

compound: Cc1nc(Nc2ncc(C(=O)Nc3c(C)cccc3Cl)s2)cc(N2CCN(CCO)CC2)n1 [Dasatinib, dasatinib]
measured_target: OCT3 (Homo sapiens)
test_readout: OCT3 function in presence of TKI
value: potently inhibiting

compound: CCc1nc(C(N)=O)c(Nc2ccc(N3CCC(N4CCN(C)CC4)CC3)c(OC)c2)nc1NC1CCOCC1 [Gilteritinib, gilteritinib]
measured_target: OCT3 (Homo sapiens)
test_readout: OCT3 function in presence of TKI
value: no influence

May I ask what OCT3 function in presence of TKI has been recorded for C=CC(=O)N1CCC[C@@H](n2nc(-c3ccc(Oc4ccccc4)cc3)c3c(N)ncnc32)C1 [Ibrutinib, ibrutinib] ? no influence
